Target: high affinity nicotinic receptors
Experiment: Inhibition of L-[3H]nicotine binding to mouse brain membrane preparations
Settings: mouse brain membranes, 2 hr incubation at 4° C., 10 nM L-[3H]nicotine, Ki calculated from IC50 by the method of Cheng et al.
experimental_readout: pKi
pKi is defined as minus the log10 of a concentration measured in mol/L.

Give a short answer stating reported pKi for CN1C(=O)CC[C@H]1c1cccnc1 [cotinine] .
5.41

// data source = patent US5187169A
